- Tested on: Saccharomyces cerevisiae
- RUN_DESCRIPTION: protein stability index of tFT-peptide fusion (C-terminal peptide) (PSI (0-1 scale)); higher = more stable (slower turnover);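 further: PSI is a weighted mean of sequencing reads over stability bins, variants kept only with over 10 reads, mCherry proximal and sfGFP distal, peptide attached via GGGS linker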
- COND: genetic background: das1 deletion; temperature: 37 C
Could you please report measured protein stability index for the items listed next?
Could you respond with only the numeric value?

Using the record for LSPLPSPLILVV , report its protein stability index.
0.228

Find the recorded protein stability index belonging to VWSVSVTIVGRR and report it.
0.528

Entry under review: MDLVSEYKIKVN . Reported protein stability index?
0.704

Any idea what protein stability index was measured for WCVCVSMRMIAI ?
0.175

What value of measured protein stability index is listed for FILLTLVFGCAS ?
0.424

Please look up its protein stability index: YRWERIYIGLRL
0.615

So what's the measured protein stability index for this one? LLPSNFLLLVGV
0.325

// returns reported protein stability index for input VCLFSVCLWFVS
0.313

// protein stability index lookup, key: ERFILVGMFGSW
0.708

Bench note: what protein stability index did CLVISVLFGVVA show?
0.382

So what does the record say about protein stability index for CSAVYNLHLLYS ?
0.741

Please look up its protein stability index: FRHKLSLGLVIV
0.56

Quick one: protein stability index for CFYSRTIILEHC ?
0.5

Given FFGVFIFPVSCR , state its recorded protein stability index.
0.292

What value of protein stability index has been recorded for this entry: DVCGVRYVLFVL
0.655

Query: protein stability index; subject: FFFFSFFLATFS
0.418

Give the measured protein stability index of RHQTDIVTATQK .
0.717

State the recorded protein stability index for this entry: VRVLAALVLCVV
0.38

Please look up its protein stability index: NMRYRATIEACA
0.397

###

- Test system: Saccharomyces cerevisiae
- RUN_DESCRIPTION: protein stability index of tFT-peptide fusion (C-terminal peptide) (PSI (0-1 scale)); higher = more stable (slower turnover)
- COND: genetic background: wild type; temperature: 30 C
Short version: protein stability index at least 0.7 is condition met, less is condition not met.

Given PRPCLPPDPPPS , state whether its protein stability index is at least 0.7.
condition not met

Could you verify whether the entry KDATVILSSRRR shows protein stability index of no less than 0.7?
condition met

Is reported protein stability index greater than or equal to 0.7 here: SAGGARSLQMFC
condition not met

Record SPCTPSRLQPSS ; criterion: protein stability index no lower than 0.7. Met?
condition not met

Dear colleague, could you confirm whether LAPLRGHDHSRA has protein stability index at or above 0.7?
condition not met

Does the sequence LFPRFPPPAPPL have recorded protein stability index that is 0.7 or more?
condition met

Determine whether measured protein stability index meets or exceeds 0.7 for EAPRTPPSVPVN
condition met

Does protein stability index meet or surpass 0.7 for PRSRSHPLCSAP ?
condition met

Check this sequence for protein stability index at or above 0.7: SSPLPPPSRAAC
condition met

Kindly determine if protein stability index recorded for VGPCGGVGHLGS is above or exactly 0.7.
condition met

In plain terms: is recorded protein stability index at least 0.7 for GCVVSGCGAGVV ?
condition not met

protein stability index >= 0.7 for IVLGPHNFLTIL ?
condition not met

Quick check: does LSPSDSPSPPAS have protein stability index greater than or equal to 0.7?
condition not met

###

Please respond with reported protein stability index for every item in the list.
- System: Saccharomyces cerevisiae
- RUN_DESCRIPTION: protein stability index of tFT-peptide fusion (C-terminal peptide) (PSI (0-1 scale)); higher = more stable (slower turnover)
- COND: genetic background: das1 deletion; temperature: 30 C

Give the measured protein stability index of TLVFPRFLFLVV .
0.393

protein stability index lookup needed for PALYLSLWFLFP , thanks.
0.445

Given RSIVFRVSRRLN , state its recorded protein stability index.
0.671

Give its protein stability index value. Item: GTHWARLGWLLA
0.619

Could you tell me which protein stability index is on file for GCLVVVGFFSVF ?
0.255

// query protein stability index value for entry YRFVWRWIPICA
0.12

What measured protein stability index goes with GLGWLLFVVERV ?
0.359

Quick one: protein stability index of RLVRILSTILLN ?
0.576

Requested field: protein stability index. Item: VGKGAGVRDGSR
0.623

Request the reported protein stability index associated with SRGGVFYVRIHS
0.628

// protein stability index lookup, key: VVFRCSSFFCLV
0.524

What protein stability index value was documented for this sequence, GYLVFTLRWLRG ?
0.343

Return reported protein stability index; argument: PGVWVVILRWWV
0.123

May I ask what protein stability index has been recorded for LLAREILVIVAV ?
0.207

I have this sequence here, CFVWFSVVLLFA , and I need its recorded protein stability index.
0.134

What does the record list as protein stability index for CCVLGDRCIGSD ?
0.635

May I ask what protein stability index has been recorded for VWSVSVTIVGRR ?
0.423

Form field: reported protein stability index of LVFFAYLIRGAL
0.364

Quick one: protein stability index for FLLELRFTCSYS ?
0.407

###

- Tested on: Saccharomyces cerevisiae
- RUN_DESCRIPTION: protein stability index of tFT-peptide fusion (C-terminal peptide) (PSI (0-1 scale)); higher = more stable (slower turnover)
- COND: genetic background: wild type; temperature: 30 C
Output label 1 for protein stability index not less than 0.7; output label 0 otherwise.

Hi team, for KTKKKNKKDQKM , is the recorded protein stability index at or above 0.7?
label 0

Please indicate if the recorded protein stability index for GGARGLLRGLLG meets or exceeds 0.7.
label 1

Given PSPAPSGPAHHP , state whether its protein stability index is at least 0.7.
label 0

Is protein stability index for RWKLRLFLLVPT at or above 0.7?
label 0

Is protein stability index for TKNTQNNGKDKK at or above 0.7?
label 1

For this sequence, is measured protein stability index 0.7 or higher? GVGFGCGGVWME
label 1

protein stability index >= 0.7 for RSPGSVSVGGVV ?
label 0

Answer whether protein stability index of PLPPTPPPLAPP is greater than or equal to 0.7.
label 0

Does protein stability index meet or surpass 0.7 for PSLLFHPAPFFP ?
label 1

Answer whether protein stability index of CLVWGGCYWDVG is greater than or equal to 0.7.
label 0

Quick check, protein stability index >= 0.7? NPQTVNSPIFPT
label 1

Evaluate CRSLSAPLPGSF : protein stability index at minimum 0.7?
label 0

Determine whether this sequence has protein stability index no lower than 0.7: RQSGSDFYGRSY
label 0

Is reported protein stability index greater than or equal to 0.7 here: KKKNNRITVFKV
label 0

###

- Tested on: Saccharomyces cerevisiae
- RUN_DESCRIPTION: protein stability index of tFT-peptide fusion (C-terminal peptide) (PSI (0-1 scale)); higher = more stable (slower turnover)
- COND: genetic background: cdc34-1; temperature: 37 C
ASSAY_ENDPOINT: protein stability index
Number only, please.

Look up protein stability index: GKVSSFVLFHIS
0.649

Which value of protein stability index has been reported for VFRECSFFLVCC in the records?
0.255

Value lookup for protein stability index; key = LVDSRIVWLFVS
0.325

What protein stability index value was documented for this sequence, LLFVLWLSFFVL ?
0.314

protein stability index lookup needed for CVVLCLFCWCML , thanks.
0.358

Which value of protein stability index has been reported for LSFFFWFIFSLC in the records?
0.475

Entry GSVLWISCLIFC : reported protein stability index = ?
0.157

Field request: protein stability index | item: LWGVGRQRNIAS
0.684

Give its protein stability index value. Item: VVPYPFLTLLNI
0.417

// lookup protein stability index for GRFGVGVVFRLA
0.669

Form field: reported protein stability index of VWGLWRLCVWGV
0.39

Report protein stability index for RIFRCYSFYVVV please.
0.496

Please give the measured protein stability index for this sequence: RWRRWCVVLFVV
0.197

What does the record list as protein stability index for VQLLTRLKTPHP ?
0.661

Value lookup for protein stability index; key = CLLLILCFLCVR
0.382

I have this sequence here, VVSVVVLVNSRG , and I need its recorded protein stability index.
0.465

So what's the measured protein stability index for this one? APRPSYSLLALL
0.733

GET /values?readout=protein stability index&item= RSRNSEYILVYN
0.655

Dear colleague, I am looking for the recorded protein stability index of the following sequence: WLISLLVQPVFL
0.295

###

- Tested on: Saccharomyces cerevisiae
- RUN_DESCRIPTION: protein stability index of tFT-peptide fusion (C-terminal peptide) (PSI (0-1 scale)); higher = more stable (slower turnover)
- COND: genetic background: wild type; temperature: 30 C
Hi there, I'd appreciate the recorded protein stability index for every entry that follows.
Returns: the value as a bare number; no unit string appended.

Endpoint output: protein stability index of KRKHQSPLLNTR . Value?
0.705

May I ask what protein stability index has been recorded for AGRRTGSRESEQ ?
0.612

What value of protein stability index has been reported for the following sequence? WFIFATFLILVT
0.193

protein stability index for PAPLPFPPPSLP ?
0.701

I have this sequence here, PLHPQPAATPRS , and I need its recorded protein stability index.
0.713

Sample ALPPLLLLPASP — what was its protein stability index?
0.691

Reported protein stability index for NTSKEDENKARI : what is it?
0.707

Could you share which protein stability index value was measured for KKLSTYSVIEKS ?
0.601

For the sequence LPSPAFLTPPPL , what protein stability index is on record?
0.788

I have this sequence here, PLPPPPRPRPPL , and I need its recorded protein stability index.
0.721

# input sequence: GGVVSVYCEVSR ; wanted: its protein stability index
0.625

Please report the recorded protein stability index for LSFFLFLLSPFY .
0.582

Looking for the measured protein stability index of QSRSEVFPCHAS , can you help?
0.848

// returns reported protein stability index for input ALEIIRLSHRLC
0.127

What does the data say about its protein stability index? Entry: KYPVDHHTPLSS
0.703

I'd like to know its protein stability index. The sequence in question is LRGRYNDVRHGK
0.708

Name the reported protein stability index value associated with the sequence PRSPARPPFPTP
0.684

Given the entry TSCFIWGCACCR , report its measured protein stability index.
0.656

If you can, please state the reported protein stability index value of SSPSPPSPPLPP .
0.735

So what does the record say about protein stability index for GSWIKFVCRRAG ?
0.731

Reported protein stability index for KTKNIKTKDKPE : what is it?
0.673

Consider the sequence shown here: FSVPRFVSISGI What is its recorded protein stability index?
0.6

Endpoint output: protein stability index of FASVFCVVTGYV . Value?
0.48

GET /values?readout=protein stability index&item= AVVRVSLPSTVV
0.667

Endpoint output: protein stability index of EDRYIGITRYKD . Value?
0.682

// returns reported protein stability index for input LLTGVPRFSLDS
0.683

Looking for the measured protein stability index of GAVVYGICFCTN , can you help?
0.442

Which protein stability index value belongs to DVGSPFSISVQS ?
0.647

// lookup protein stability index for DPPLRPSSLPPP
0.653

Return reported protein stability index; argument: PPPPPPLPPPPL
0.671

For DSRSPSTTLIPL , what is its reported protein stability index?
0.662

protein stability index for LLKGPDLLGRAS ?
0.721

Name the reported protein stability index value associated with the sequence PHLTTPATPVLL
0.716

Which value of protein stability index has been reported for FGGGGGGGLLWC in the records?
0.739

Report protein stability index for SFPPLPPLPLPP please.
0.571

Please look up its protein stability index: SRTYAHSPPLPA
0.699

Entry KKKKKKNKKTKN has what protein stability index?
0.711

Report protein stability index for FRRLVTGVLSIF please.
0.559

Query (sequence): NTGEHVVPCKGT ; field requested: protein stability index
0.659

I'd like to know its protein stability index. The sequence in question is GGGGGCGVAGGV
0.71

Any idea what protein stability index was measured for RYASSRTLFAAV ?
0.672
